# method-summary: Tanguay_ZF_120hpf_ActivityScore_legacy: (Legacy) Oregon State University Tanguay Lab 120 Hour Post-fertilization zebrafish Assay Score for Activity (AID 2283742)
Activity calls are given as the source filed them. How the source made its calls: active means hit-call score of the fitted dose curve at least 0.9, where 1 is the maximum; inconclusive means response in the unintended direction; inactive means score below 0.9.
Response enum: yes for active, no for inactive

For orientation, consider the following solved cases.
O=C(O)c1ccccc1-n1cc(C(=O)O)c(=O)c2cc(Nc3c(F)cc(F)cc3Cl)c(Cl)cc21 :: no
c1ccc2ccccc2c1 :: no
CN(C)c1ccc(C(=C2C=CC(=[N+](C)C)C=C2)c2ccc(N(C)C)cc2)cc1 :: yes
CC1=CC(=O)/C(=C(/C)O)C(=O)O1 :: no
CC(O)CC(C)(C)O (stereo not drawn) :: no
COCC(C)OCC(C)OCC(C)O (stereo not drawn) :: no
CC(C)(c1cc(Br)c(O)c(Br)c1)c1cc(Br)c(O)c(Br)c1 :: yes
CCCOC(=O)c1cc(O)c(O)c(O)c1 :: no

**Query** Please state the recorded outcome for this molecule: CO[C@H]1/C=C/O[C@@]2(C)Oc3c(C)c(O)c4c(O)c(c(/C=N/N5CCN(C)CC5)c(O)c4c3C2=O)NC(=O)/C(C)=C\C=C\[C@H](C)[C@H](O)[C@@H](C)[C@@H](O)[C@@H](C)[C@H](OC(C)=O)[C@@H]1C
**Result** no

**Query** Please state the recorded outcome for this molecule: Cc1ncc(CO)c(CO)c1O
**Result** no

###

# target-system: Cellular tumor antigen p53 (Homo sapiens) (UniProt P04637)
# Sequence (P04637 whole entry, looked up): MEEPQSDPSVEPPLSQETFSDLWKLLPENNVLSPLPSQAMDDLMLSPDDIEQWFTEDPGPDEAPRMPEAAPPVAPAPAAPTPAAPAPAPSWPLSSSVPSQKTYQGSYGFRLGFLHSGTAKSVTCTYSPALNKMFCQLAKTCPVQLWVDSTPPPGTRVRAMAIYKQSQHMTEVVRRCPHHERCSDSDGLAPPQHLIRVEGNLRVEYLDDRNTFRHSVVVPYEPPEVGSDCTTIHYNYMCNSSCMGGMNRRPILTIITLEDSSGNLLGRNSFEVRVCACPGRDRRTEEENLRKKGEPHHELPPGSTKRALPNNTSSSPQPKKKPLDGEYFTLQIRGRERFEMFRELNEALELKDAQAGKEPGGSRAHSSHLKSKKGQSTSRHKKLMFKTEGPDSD
# method-summary: ATG_p53_CIS: Attagene CIS-FACTORIAL HepG2 Assay for human p53 Transcription Factor (AID 2282994)
# details: HepG2 p53 cis-element reporter, Attagene mRNA; actives raise or lower the signal
Activity calls are given as the source filed them. The calls were made as follows: active = hit-call score of the fitted dose curve at least 0.9, where 1 is the maximum; inactive = score below 0.9.
Response enum: 1 = active, -1 = inactive

For orientation, consider the following solved cases.
CCO[Si](CCCNC(N)=O)(OCC)OCC :: -1
CCCCCCCCOC(=O)c1cc(O)c(O)c(O)c1 :: -1
CC1=CC(=O)/C(=C(/C)O)C(=O)O1 :: -1
O=C1c2ccccc2C(=O)N1CCc1noc(-c2ccc(CN3CCCCCC3)s2)n1 :: -1

**Query** Please state the recorded outcome for this compound: CN(C)c1ccc(C(=C2C=CC(=[N+](C)C)C=C2)c2ccc(N(C)C)cc2)cc1
**Result** 1

**Query** Please state the recorded outcome for this compound: CCCCOC(=O)CC(CC(=O)OCCCC)(OC(C)=O)C(=O)OCCCC
**Result** -1

**Query** Please state the recorded outcome for this compound: CCCC(=O)OCCC(C)C
**Result** -1

**Query** Please state the recorded outcome for this compound: CC[C@@H]1C[C@H](N(Cc2cc(C(F)(F)F)cc(C(F)(F)F)c2)C(C)=O)c2cc(C(F)(F)F)ccc2N1C(=O)OC(C)C
**Result** -1

**Query** Please state the recorded outcome for this compound: CCCCCCCCCC(=O)O
**Result** -1

**Query** Please state the recorded outcome for this compound: Cc1occc1C(=O)Nc1ccc(C(=O)N2CCC(F)(F)/C(=C\C(=O)N3CCC(N4CCCCC4)CC3)c3ccccc32)cc1
**Result** -1

###

# Read-out: serum amyloid A (SAA), SAA1 (gene 6288)
# method-summary: BSK_CASM3C_SAA: BioMAP Diversity Plus: CASM3C Assay for serum amyloid A (SAA) Biomarker Activity (AID 2283049);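 further: SAA protein level quantified by ELISA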
# details: primary human coronary artery smooth muscle cells; actives raise or lower the signal
Activity calls are given as the source filed them. Rule for the calls: active = hit-call score of the fitted dose curve at least 0.9, where 1 is the maximum; inactive = score below 0.9.
Response enum: active, inactive

For orientation, consider the following solved cases.
CCCCOC(=O)CC(CC(=O)OCCCC)(OC(C)=O)C(=O)OCCCC :: active
COCC(C)OCC(C)OCC(C)O (centres undefined) :: inactive
Cc1ccc2oc(CN(Cc3ccccc3)C(=O)Nc3c(F)cc(F)cc3F)c(-c3ccc(Cl)cc3)c2c1 :: inactive
Cc1oc2c(NC(=O)c3c(Cl)cccc3Cl)cccc2c1C(C)(C)O :: inactive
CCCCOC(=O)c1ccc(O)cc1 :: inactive

// next entry
**Query** Please state the recorded outcome for this compound: CC1=CC(=O)/C(=C(/C)O)C(=O)O1
**Result** inactive
